Molecular target: GBD (gelatin-binding domain of fibronectin) (Homo sapiens, UniProt P02751)
Sequence (P02751 308-608 limits assumed): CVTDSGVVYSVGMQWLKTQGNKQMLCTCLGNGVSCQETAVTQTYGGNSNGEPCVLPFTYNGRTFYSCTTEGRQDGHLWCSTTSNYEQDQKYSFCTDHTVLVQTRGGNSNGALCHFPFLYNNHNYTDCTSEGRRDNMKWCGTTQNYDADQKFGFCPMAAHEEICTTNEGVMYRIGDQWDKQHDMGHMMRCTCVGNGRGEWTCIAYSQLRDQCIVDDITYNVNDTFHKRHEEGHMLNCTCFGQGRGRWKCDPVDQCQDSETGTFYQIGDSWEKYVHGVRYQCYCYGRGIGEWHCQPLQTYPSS
Assay: ITC, binding to GBD
pKd: −log10 of the molar value. Where no end group is shown, it is not given here.
value-kind: pKd

input_sequence="RNPHLMGIGGGLAGESGETTPK [FnZ peptide]" quantitative_result=6.27
